Reference for the values: patent US11040981B2

pIC50: −log10 of the molar value.
Notes on pIC50 obtained with FLT3 (Homo sapiens, UniProt P36888).
Sequence (P36888 27-993, species assumed): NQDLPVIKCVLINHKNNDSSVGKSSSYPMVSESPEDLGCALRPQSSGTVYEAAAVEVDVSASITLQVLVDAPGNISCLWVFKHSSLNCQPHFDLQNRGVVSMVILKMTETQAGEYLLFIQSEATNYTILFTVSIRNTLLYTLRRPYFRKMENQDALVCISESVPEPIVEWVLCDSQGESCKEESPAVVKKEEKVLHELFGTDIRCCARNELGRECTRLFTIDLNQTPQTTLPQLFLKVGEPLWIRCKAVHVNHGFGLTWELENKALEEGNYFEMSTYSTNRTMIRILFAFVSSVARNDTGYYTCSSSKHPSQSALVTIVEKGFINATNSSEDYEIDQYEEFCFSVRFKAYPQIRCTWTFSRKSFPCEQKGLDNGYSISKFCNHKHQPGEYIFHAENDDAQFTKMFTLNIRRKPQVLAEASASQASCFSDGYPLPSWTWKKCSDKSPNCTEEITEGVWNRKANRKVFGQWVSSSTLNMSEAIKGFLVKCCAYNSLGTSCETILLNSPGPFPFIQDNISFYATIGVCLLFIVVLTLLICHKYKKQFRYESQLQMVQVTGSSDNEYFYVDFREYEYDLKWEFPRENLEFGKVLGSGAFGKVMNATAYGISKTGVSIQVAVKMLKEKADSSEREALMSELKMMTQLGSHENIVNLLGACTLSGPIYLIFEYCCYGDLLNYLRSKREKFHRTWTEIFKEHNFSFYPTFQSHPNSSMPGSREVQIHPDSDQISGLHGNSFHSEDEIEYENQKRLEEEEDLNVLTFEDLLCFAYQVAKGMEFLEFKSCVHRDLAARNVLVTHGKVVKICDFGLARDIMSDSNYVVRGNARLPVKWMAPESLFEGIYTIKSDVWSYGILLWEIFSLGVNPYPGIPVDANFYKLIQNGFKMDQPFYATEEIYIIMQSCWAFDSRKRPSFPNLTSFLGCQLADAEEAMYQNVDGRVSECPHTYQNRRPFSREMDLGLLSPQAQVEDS

Some solved cases for reference:
>  <Compound>
CC[C@H](C)Nc1ncc2c(-c3ccc(CN4CCN(C)CC4)cc3)cc(C3CCC(C)(O)CC3)n2n1 (stereo in doubt)

>  <Result>
≥ 7.00

$$$$
>  <Compound>
COC[C@H](C)Nc1ncc2c(-c3ccc([C@H](C)N4CCCC4)cc3)cc([C@H]3CC[C@H](O)CC3)n2n1

>  <Result>
≥ 7.00

$$$$
>  <Compound>
COC[C@H](C)Nc1ncc2c(-c3ccc(CC(=O)O)cc3)cc([C@H]3CC[C@H](O)CC3)n2n1

>  <Result>
6.00 to 7.00

$$$$
>  <Compound>
C[C@@H](CN(C)C)Nc1ncc2c(-c3cnn(C4COC4)c3)cc([C@H]3CC[C@H](O)CC3)n2n1

>  <Result>
5.00 to 6.00

$$$$
>  <Compound>
CC1(Nc2ncc3c(-c4cnn(C5COC5)c4)cc(C4CCC(O)CC4)n3n2)COC1 (stereo not shown)

>  <Result>
6.00 to 7.00

$$$$

Qu. Report its pIC50 with FLT3 (Homo sapiens, UniProt P36888) as the test system: CC(Nc1ncc2c(-c3ccc(CN4CCN(C)CC4)cc3)cc([C@H]3CC[C@H](O)CC3)n2n1)C(F)F (mixture of isomers)
Ans. 6.00 to 7.00

Qu. State pIC50 (FLT3 (Homo sapiens, UniProt P36888)) of "COC[C@H](C)Nc1ncc2c(C3=C[C@H]4CC[C@@H](C3)N4)cc([C@H]3CC[C@H](O)CC3)n2n1" .
Ans. 5.00 to 6.00
